We begin with a simple list: items and their reported MFI.
- systemTested: T1, human Siglec-5 expressed on human primary cells (human, UniProt O15389 17-551)
- T1 construct: Endogenous receptor on human primary monocytes, dendritic cells, macrophages and neutrophils; also called CD170
- T1 sequence: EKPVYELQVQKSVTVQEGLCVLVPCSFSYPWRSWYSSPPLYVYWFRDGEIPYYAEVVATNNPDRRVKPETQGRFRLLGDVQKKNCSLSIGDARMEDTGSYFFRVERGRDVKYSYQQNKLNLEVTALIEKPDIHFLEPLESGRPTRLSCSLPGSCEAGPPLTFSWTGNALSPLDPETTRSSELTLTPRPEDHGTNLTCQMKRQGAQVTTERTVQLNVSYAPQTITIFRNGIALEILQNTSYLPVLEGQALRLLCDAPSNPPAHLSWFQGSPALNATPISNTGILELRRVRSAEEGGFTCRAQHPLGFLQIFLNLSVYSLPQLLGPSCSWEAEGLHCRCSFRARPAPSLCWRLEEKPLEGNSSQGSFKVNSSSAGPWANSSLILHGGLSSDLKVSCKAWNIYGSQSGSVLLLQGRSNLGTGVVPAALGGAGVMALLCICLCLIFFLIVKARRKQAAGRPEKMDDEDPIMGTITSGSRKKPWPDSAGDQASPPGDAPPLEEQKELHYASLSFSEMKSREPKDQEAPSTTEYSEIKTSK
- assaySummary: flow cytometry, human primary monocytes, 10 ug/ml mAb
Give a plain numeric answer without units written out.

Reference set (6 entries):
anti-Siglec-5 monoclonal antibody 7A5 (antibody, IgG1, V domains shown) VH: EIQLQQSGPELVKPGASVKVSCKASGYSFTDYNMYWVKQSHGKSLEWIGYIDPYNGGTTYNQKFKGKATLTVDKSSSTAFMHLNSLTSEDSAVFYCAFYYGYYGVPYWGQGTLVTVSA VL: DIVMIQSQKFMSTSVGDRVSVTCKASQNVDTNVAWYQQKPGQSPKALIYSASYRYSGVPDRFTGSGSGTDFTLTISNVQSEDLAEYFCQQYNSFPLTFGSGTKLEIK = 391
anti-Siglec-5 monoclonal antibody 11H3 (antibody, IgG1, V domains shown) VH: QVQLQQSGPELVKPGASVKVSCKASDYAFTSYNIYWVKQSHGKSLEWIGYIDPYNGGTSYNQTFKGKATLTVDKSSSTAYMHLNSLTSEDSAVYYCAMKVGYEAMDYWGQGTSVTVSS VL: DIQMTQSQKFMSTSVGDRVSVTCKASQNVGTNVAWYQQKPGQSPKALIYSASYRYSGVPDRFTGSGSGTDFTLNISNVQSEDLAEYFCQQFNSYPYTFGGGTKLEIK = 376
anti-Siglec-5 monoclonal antibody 10F9 (antibody, IgG1, V domains shown) VH: EIQLQQSGPELVKPGASVKVSCKASGYSFTGYNMYWVKQSHGKSFEWIGYIDPYTGGTSYNQRFKGKATLTVDKSSSTAFMHLNSLTSEDSAIYYCALFYDYDGFPYWGQGTLVTVSA VL: DIVMTQSQKFMSTSVGDRVSVTCKASQNVDTNVAWYQQKPGQSPKALIYSASYRYSGVPDRFTGSGSGTDFTLTISNVQSEDLAEYFCQQYNSYPYTFGGGTKLEIK = 405
anti-Siglec-5 monoclonal antibody 10B6 (antibody, IgG1, V domains shown) VH: EIQLQQSGPELVKPGASVKVSCKASGYSFTDYNMYWVKQSHGKSLECFGYIDPYNGGPYYNQKFKGKATLTVDKSSSTAFMHLNSLTSEDSAVYYCAFYYGYYGVPYWGQGTLVTVSA VL: DIVMTQSQKFMSTSVGDRVSVTCKASHNVGTSVAWYQQKPGQSPKSLIYSASYRYSGVPDRFTGSGSGTDFTLTISNVQSEDLAEYFCQQYNSYPLTFGSGTKLEIK = 421
anti-Siglec-5 monoclonal antibody 2G5 (antibody, IgG1, V domains shown) VH: EIQLQQSGPELVKPGASVKVSCKASGYSFTDYNMYWVKQSHGKSLEWIGYIDPYNGNTTYNQRFKGKATLTVDKSSSTAFMHLNSLTSEDAAVYYCATFYGFDGFAYWGQGSLVAVSA VL: QAVVTQESALTTSPGETVTLTCRSSTGAVTTSNYANWVQEKPDHLFTGLIGTTNNRAPGVPARFSGSLIGDKAALTITGAQTEDEAIYFCALWYSNHLVFGGGTKLTVLG = 368
anti-Siglec-5 monoclonal antibody 8A1 (antibody, IgG1, V domains shown) VH: EIQLQQSGPELVKPGASVKVSCKASDYAFTSYNIYWVKQSHGKSLEWIGYIDPYNGGTSYNQTFKGKATLTVDKSSSTAYMHLNSLTSEDSAVYYCAMKVGYEAMDYWGQGTSVTVSS VL: DIVMTQSQKFMSTSVGDRVSVTCKASQNVGTYVAWYQQKPGQSPKALIYSASYRYSGVPDRFTGSGSGTDFTLNISNVQSEDLAEYFCQQFNSYPYTFGGGTKLEIK = 398

Now consider the entry below.
Dear colleague, I am looking for the recorded MFI of the following binder: anti-Siglec-5 monoclonal antibody 8C3 (antibody, IgG1, V domains shown) VH: QVQLQQSGGGLVKPGTSVKLSCKASGYIFTEYIIHWVKQRSGQGLEWIGWFYPGIISIKYNEKFKDKATLTADKSSSTVYMELSRLTSEDSAVYFCAGHEGYDGAMDYWGQGTSVTVSS VL: DVLMTQTPLSLPVSLGDQASISCRCSQSIVHSNGNTYLEWYLQKPGQSPKLLIYRVSNRFSGVPDRFSGSGSGTDFTLKISRVEAEDLGVYYCFQGSHVPWTFGGGTKLEIK 377
